# measured.on: Serotonin 5HT7 receptors (Homo sapiens (Human), UniProt P34969)
# Sequence (P34969 whole entry): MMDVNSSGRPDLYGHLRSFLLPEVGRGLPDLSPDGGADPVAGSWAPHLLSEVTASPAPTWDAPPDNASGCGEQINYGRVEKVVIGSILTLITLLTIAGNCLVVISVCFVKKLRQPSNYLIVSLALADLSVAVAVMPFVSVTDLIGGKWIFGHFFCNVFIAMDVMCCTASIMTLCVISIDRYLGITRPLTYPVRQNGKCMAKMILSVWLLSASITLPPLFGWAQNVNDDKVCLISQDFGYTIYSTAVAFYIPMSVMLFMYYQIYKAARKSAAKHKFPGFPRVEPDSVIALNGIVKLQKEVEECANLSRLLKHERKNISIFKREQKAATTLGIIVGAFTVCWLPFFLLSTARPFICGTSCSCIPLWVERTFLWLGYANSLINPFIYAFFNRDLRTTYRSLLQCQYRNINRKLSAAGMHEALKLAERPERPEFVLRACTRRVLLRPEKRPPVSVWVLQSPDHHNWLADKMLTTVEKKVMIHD
# experimental.protocol: Radiolabel Binding Studies for Serotonin 5HT7 receptors;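 further: displacement of a tritiated radioligand from membranes of stably transfected cells carrying recombinant 5-HT7 receptor, with filter-bound radioactivity measured by scintillation counting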
# cond: read-out: 5-HT7 % inhib @ 10 uM
Parameter threshold = 90%. Response is Criterion met when inhibition at 10 µM meets or exceeds it, else Criterion not met.

Lookup: Check the entry Cc1ccc(N2CCN(CC3CC(c4ccccc4)(c4ccccc4)C(=O)O3)CC2)cc1 (stereo not shown) [Entry 44] : does inhibition at 10 µM equal or exceed 90%?
Found: Criterion not met

Lookup: Check the entry O=C1OC(CCN2CCN(c3cccc(O)c3)CC2)CC12CCCCC2 (stereo not shown) [Entry 21] : does inhibition at 10 µM equal or exceed 90%?
Found: Criterion not met

Lookup: Check the entry CCC1(CC)CC(CCN2CCC(=C(c3ccccc3)c3ccccc3)CC2)OC1=O (stereo not shown) [Entry 38] : does inhibition at 10 µM equal or exceed 90%?
Found: Criterion met

Lookup: Check the entry Cc1ccc(N2CCN(CCC3CC(c4ccccc4)(c4ccccc4)C(=O)O3)CC2)cc1 (stereo not shown) [Entry 45] : does inhibition at 10 µM equal or exceed 90%?
Found: Criterion met

Lookup: Check the entry CCC1(CC)CC(CCN2CCN(c3ccc(N)cc3)CC2)OC1=O (stereo not shown) [Entry 12] : does inhibition at 10 µM equal or exceed 90%?
Found: Criterion not met

Lookup: Check the entry CCC1(CC)CC(CCN2CCN(c3ccccc3O)CC2)OC1=O (stereo not shown) [Entry 6] : does inhibition at 10 µM equal or exceed 90%?
Found: Criterion met

Lookup: Check the entry CCC1(CC)CC(CCN2CCN(c3cccc(O)c3)CC2)OC1=O (stereo not shown) [Entry 8] : does inhibition at 10 µM equal or exceed 90%?
Found: Criterion met
